System: XF498
assay overview: NCI tumour cell line growth inhibition, 48 h
Calls of active or inactive are those of the source. No stated cut-off is given here; in the data, active = GI50 up to about 1.1 µM and inactive = higher.

# compound, GI50
rows = [
    ("COc1ccc(-c2csc(=[N+]3CCCCC3)s2)cc1", "4.05 µM (inactive)"),
    ("CCOC(=O)C(=Cc1ccc(Oc2ccccc2)cc1)C(=O)OCC", "4.32 µM (inactive)"),
    ("C[C@]12CC[C@H](OC3CCCCO3)CC1=CC[C@@H]1C2CC[C@]2(C)/C(=N/O)CCC12 (stereo partly drawn)", "40.6 µM (inactive)"),
    ("Brc1ccc2c(c1)C1C(CO2)C(c2ccccc2)=NN1c1ccccc1 (stereo not drawn)", "> 100 µM (inactive)"),
    ("COC(=O)C1CCC(N2C(=O)CCC2C(=O)OC)=N1 (stereo not drawn)", "> 100 µM (inactive)"),
    ("C/C(=N/NS(=O)(=O)c1ccc(C)cc1)c1cccc[n+]1[O-]", "> 100 µM (inactive)"),
    ("CCOC(=O)c1ccc(-n2c(SCC)nc3sc(C)c(C)c3c2=O)cc1", "> 100 µM (inactive)"),
    ("COC(=O)CCC(=O)Nc1cc(Cl)ccc1Cl", "> 100 µM (inactive)"),
    ("CN(C)CCN(C)CCC(=O)/C=C/c1ccccc1", "22.2 µM (inactive)"),
    ("CSC(C1c2ccccc2N(C)C2=NC(=O)N(C)C(=O)C21Cl)S(=O)(=O)c1ccc(C)cc1 (stereo not drawn)", "> 100 µM (inactive)"),
    ("CN(C)C(=O)Oc1c(-c2ccccc2)c(=O)n2c3ccccc3n3c(=O)n(C)c(=O)c1c23", "> 100 µM (inactive)"),
    ("O=C(O)c1ccc2c(c1)C(=O)N(c1ccc(S(=O)(=O)c3ccc(N4C(=O)c5ccc(C(=O)O)cc5C4=O)cc3)cc1)C2=O", "> 100 µM (inactive)"),
    ("Cn1c2c(c3ccccc31)C1CCCCCCC1C1C(=O)OC(=O)C21 (stereo not drawn)", "43.6 µM (inactive)"),
    ("CCOC(=O)C1COc2cc(-c3cc(=O)c4ccccc4o3)ccc2O1 (stereo not drawn)", "30.6 µM (inactive)"),
    ("O=c1sc(-c2nc3ccccc3[nH]2)c(/N=C/c2ccccc2)n1-c1ccccc1", "31.2 µM (inactive)"),
    ("Cc1cc(N(CCC#N)CCC#N)ccc1CC1N=C(c2ccccc2)OC1=O (stereo not drawn)", "> 100 µM (inactive)"),
    ("O=C(NO)c1ccc(O)c(O)c1", "> 100 µM (inactive)"),
    ("CCCCc1c2c(nc3c1CCCC3O)/C(=C/c1ccccc1)CCC2 (stereo not drawn)", "13.2 µM (inactive)"),
]
